tested on: Pichia kudriavzevii; test: Antifungal activity against Candida krusei by microdilution test; format: functional
quantity.name: MIC (µg/mL)
Give the quantity in µg/mL, number only.

# lookup: MIC of Nc1nc(=O)[nH]cc1F [FLUCYTOSINE]
0.5

Recorded MIC of CN(C)S(=O)(=O)c1ccc2c(c1)N(CCCN1CCC(CCO)CC1)c1ccccc1S2 [PIPOTIAZINE] , please.
512

MIC for OC(Cn1cncn1)(Cn1cncn1)c1ccc(F)cc1F [FLUCONAZOLE] ?
64

What value of measured MIC is listed for CCC(C)n1ncn(-c2ccc(N3CCN(c4ccc(OCC5COC(Cn6cncn6)(c6ccc(Cl)cc6Cl)O5)cc4)CC3)cc2)c1=O (stereo not given) [ITRACONAZOLE] ?
0.06

Quick one: MIC for C[C@@H]1[C@H](O)[C@@H](C)/C=C/C=C/C=C/C=C/C=C/C=C/C=C/[C@H](O[C@@H]2O[C@H](C)[C@@H](O)[C@H](N)[C@@H]2O)C[C@@H]2O[C@](O)(C[C@@H](O)C[C@@H](O)[C@H](O)CC[C@@H](O)C[C@@H](O)CC(=O)O[C@H]1C)C[C@H](O)[C@H]2C(=O)O [AMPHOTERICIN B] ?
0.25
